Recorded values, source patent US6919086B1.

Assignment: determine reported pIC50 for the given binders.
system-name: IgE antibodies of the individual allergic patient serum II/17
assay-details: EAST inhibition, individual serum II/17
Please note pIC50 is a logarithmic value: minus log10 of concentration in mol/L. Answer with that number alone.

Quick one: give measured pIC50 for rPhl p 5b deletion mutant DM1 (deletion K50-P132, D49L) (protein) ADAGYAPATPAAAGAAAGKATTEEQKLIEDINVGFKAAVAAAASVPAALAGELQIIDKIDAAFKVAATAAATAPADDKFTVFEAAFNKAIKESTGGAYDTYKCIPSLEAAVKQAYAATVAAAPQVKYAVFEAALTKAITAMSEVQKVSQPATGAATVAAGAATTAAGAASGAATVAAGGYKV 8.70

Quick one: give measured pIC50 for recombinant Phl p 5b (wild type) (protein) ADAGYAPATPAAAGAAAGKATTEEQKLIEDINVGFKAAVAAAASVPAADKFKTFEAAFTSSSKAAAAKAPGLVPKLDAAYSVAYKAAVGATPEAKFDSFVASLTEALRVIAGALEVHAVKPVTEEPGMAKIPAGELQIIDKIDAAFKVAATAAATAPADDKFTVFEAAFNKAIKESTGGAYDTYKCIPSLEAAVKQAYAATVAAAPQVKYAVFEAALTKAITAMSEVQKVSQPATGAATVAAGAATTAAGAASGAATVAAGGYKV 8.33
